# Assay target: GABA-A receptor; alpha-1/beta-3/gamma-2 (Homo sapiens) (UniProt P14867+P18507+P28472)
# Assay: Modulation of [3H]flunitrazepam binding to full length human N-terminal flag-tagged alpha1-beta3-C-terminal 1D4-tagged gamma2 GABAA receptor extracted from Tetracycline-resistant HEK293 cell membrane assessed as fold change in [3H]flunitrazepam binding at 300 uM incubated for 30 mins
# Format: cell membranes
# Conditions used: filed as modulator
Reported fold change (FC) is given for each of the following molecules.
Measured attribute: fold change (FC)

{"Molecule": "CC(C)c1ccc2c(c1)C1(CC2)C(=O)NC(=O)N(C)C1=O (stereo in doubt; 5h-2)", "Numeric result": 0.59}
{"Molecule": "CN1C(=O)NC(=O)C2(CCc3ccc(Br)cc32)C1=O (stereo in doubt; 6h-2)", "Numeric result": 0.61}
{"Molecule": "Cc1ccc2c(c1)C1(CC2)C(=O)NC(=O)N(C)C1=O (stereo in doubt; 4h-2)", "Numeric result": 0.72}

// data source = ChEMBL document CHEMBL6134857
